- System: M. tuberculosis H37Rv
- assay_details: Resazurin MIC assay, pan-sensitive strain
- Assay type: cell-based
- reported_conditions: Mycobacterium tuberculosis, H37RV, 48 h; Table 2; Resazurin MIC assay; […]; read-out: MIC H37Rv
Can you tell me MIC for the items I'm about to list?
Write the figure, then the unit, nothing else.

compound	recorded_endpoint	endpoint_value
O=C1Nc2ccc(OC(F)(F)F)cc2C1=NNC(=O)c1ccc([N+](=O)[O-])o1	MIC	2.5 µg/mL
O=C1Nc2ccc(F)cc2C1=NNC(=O)c1ccc([N+](=O)[O-])o1	MIC	5 µg/mL

Let us examine a further case.
Jot down MIC (M. tuberculosis H37Rv) of CO[C@H]1/C=C/O[C@@]2(C)Oc3c(C)c(O)c4c(O)c(c(/C=N/N5CCN(C)CC5)c(O)c4c3C2=O)NC(=O)/C(C)=C\C=C\[C@H](C)[C@H](O)[C@@H](C)[C@@H](O)[C@@H](C)[C@H](OC(C)=O)[C@@H]1C [Rifampin, reference compound] .
0.0031 µg/mL
